assay_system: wild-type un-phosphorylated FGFR2 (Homo sapiens, UniProt P21802)
Sequence (P21802 22-821): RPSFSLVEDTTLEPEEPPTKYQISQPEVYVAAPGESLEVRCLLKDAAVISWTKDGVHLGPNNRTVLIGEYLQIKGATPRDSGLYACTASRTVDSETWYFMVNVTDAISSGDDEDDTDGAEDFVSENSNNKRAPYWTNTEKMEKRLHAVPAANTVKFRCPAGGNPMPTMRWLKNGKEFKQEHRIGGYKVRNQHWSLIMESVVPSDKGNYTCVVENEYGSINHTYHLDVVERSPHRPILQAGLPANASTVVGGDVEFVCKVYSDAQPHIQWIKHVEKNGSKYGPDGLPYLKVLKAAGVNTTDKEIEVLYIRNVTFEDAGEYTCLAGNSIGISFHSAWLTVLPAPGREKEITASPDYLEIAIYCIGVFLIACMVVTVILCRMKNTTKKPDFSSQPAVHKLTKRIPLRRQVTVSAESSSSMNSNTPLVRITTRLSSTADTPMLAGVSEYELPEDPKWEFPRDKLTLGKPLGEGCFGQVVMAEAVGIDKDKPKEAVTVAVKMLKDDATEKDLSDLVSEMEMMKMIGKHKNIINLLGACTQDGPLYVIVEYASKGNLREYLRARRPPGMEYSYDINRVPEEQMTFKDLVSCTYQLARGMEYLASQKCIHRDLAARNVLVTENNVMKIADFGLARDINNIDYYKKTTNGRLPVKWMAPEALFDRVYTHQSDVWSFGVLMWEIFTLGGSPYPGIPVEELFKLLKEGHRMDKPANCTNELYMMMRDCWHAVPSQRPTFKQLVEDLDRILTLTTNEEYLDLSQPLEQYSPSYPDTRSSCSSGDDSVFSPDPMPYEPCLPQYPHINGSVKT
protocol_notes: FGFR Enzymatic Assay (FRET peptide phosphorylation), FGFR2
The entries below are paired with their reported IC50.

>  <compound>
COc1cc2[nH]nc(-c3ccc(C45CC4CN(CCO)C5)nc3)c2nc1-c1cccc2c1CCC2 (single isomer, unassigned) [Example 194B]

>  <IC50>
< 6 nM

$$$$
>  <compound>
COc1cc2[nH]nc(-c3cnn(C4CN(C(=O)[C@H]5C[C@H](O)C5)C4)c3)c2nc1-c1cccc2c1CCC2 [Example 125]

>  <IC50>
< 6 nM

$$$$
>  <compound>
COc1cc2[nH]nc(-c3ccc(C4CCN(C(=O)N5CCOCC5)CC4)nc3)c2nc1-c1cccc2c1CCC2C#N (single isomer, unassigned) [Example 181]

>  <IC50>
< 6 nM

$$$$

----------
The entries below are paired with their reported pIC50.
assay_system: wild-type un-phosphorylated FGFR3 (Homo sapiens, UniProt P22607)
Sequence (P22607 23-806): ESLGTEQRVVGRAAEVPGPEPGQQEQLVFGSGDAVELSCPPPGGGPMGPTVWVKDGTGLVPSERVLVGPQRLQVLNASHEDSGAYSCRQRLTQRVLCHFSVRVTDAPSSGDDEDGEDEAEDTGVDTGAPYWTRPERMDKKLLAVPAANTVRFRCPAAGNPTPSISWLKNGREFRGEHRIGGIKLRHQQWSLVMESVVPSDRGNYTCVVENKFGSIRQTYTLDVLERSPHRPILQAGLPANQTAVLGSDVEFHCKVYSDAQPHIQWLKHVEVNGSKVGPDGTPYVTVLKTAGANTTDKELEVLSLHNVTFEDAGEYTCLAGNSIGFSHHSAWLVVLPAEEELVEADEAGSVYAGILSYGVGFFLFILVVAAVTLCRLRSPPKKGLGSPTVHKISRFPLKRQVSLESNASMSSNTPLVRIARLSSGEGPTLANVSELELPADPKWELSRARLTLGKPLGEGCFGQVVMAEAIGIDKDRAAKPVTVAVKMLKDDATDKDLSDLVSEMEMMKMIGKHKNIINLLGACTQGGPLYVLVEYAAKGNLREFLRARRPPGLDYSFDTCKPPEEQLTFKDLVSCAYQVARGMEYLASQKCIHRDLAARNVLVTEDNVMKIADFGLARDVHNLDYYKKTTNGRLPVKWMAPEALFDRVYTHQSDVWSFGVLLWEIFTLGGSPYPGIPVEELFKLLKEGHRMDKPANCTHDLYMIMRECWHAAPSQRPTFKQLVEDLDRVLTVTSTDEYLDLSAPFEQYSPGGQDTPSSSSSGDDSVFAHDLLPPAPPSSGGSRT
protocol_notes: FGFR Enzymatic Assay (FRET peptide phosphorylation), FGFR3
pIC50: −log10 of the molar value.
reported_metric: pIC50

>  <compound>
Cn1cc(-c2n[nH]c3cc(CO)c(-c4cccc5c4CCC5)nc23)cn1

>  <assay_system>
wild-type un-phosphorylated FGFR3 (Homo sapiens, UniProt P22607)

>  <value_observed>
> 8.22

$$$$
>  <compound>
COc1cc2[nH]nc(-c3cnn(C4CN(C(=O)[C@@H]5CCN5C)C4)c3)c2nc1-c1cccc2c1CCC2

>  <assay_system>
wild-type un-phosphorylated FGFR3 (Homo sapiens, UniProt P22607)

>  <value_observed>
> 8.22

$$$$
>  <compound>
COc1cc2[nH]nc(-c3cnn([C@H]4CCN(C(=O)[C@H]5C[C@@](C)(O)C5)C4)c3)c2nc1-c1cccc2c1CCC2

>  <assay_system>
wild-type un-phosphorylated FGFR3 (Homo sapiens, UniProt P22607)

>  <value_observed>
> 8.22

$$$$
>  <compound>
COc1cc2[nH]nc(-c3ccc(N4CC(N(C)C(=O)CO)C4)nc3)c2nc1-c1cccc2c1CCC2

>  <assay_system>
wild-type un-phosphorylated FGFR3 (Homo sapiens, UniProt P22607)

>  <value_observed>
> 8.22

$$$$
>  <compound>
COc1cc2[nH]nc(-c3cnn(C)c3)c2nc1-c1cccc2c1CC(F)C2 (stereo not shown)

>  <assay_system>
wild-type un-phosphorylated FGFR3 (Homo sapiens, UniProt P22607)

>  <value_observed>
> 8.22

$$$$
>  <compound>
COc1cc2[nH]nc(-c3ccc(C4CCN(C(=O)[C@@H]5CCCN5C)CC4)nc3)c2nc1-c1cccc2c1CCC2

>  <assay_system>
wild-type un-phosphorylated FGFR3 (Homo sapiens, UniProt P22607)

>  <value_observed>
> 8.22

$$$$
>  <compound>
COc1cc2[nH]nc(-c3cnn([C@H]4CC[C@H](O)CC4)c3)c2nc1-c1cccc2c1CCC2

>  <assay_system>
wild-type un-phosphorylated FGFR3 (Homo sapiens, UniProt P22607)

>  <value_observed>
> 8.22

$$$$

----------
assay_system: wild-type un-phosphorylated FGFR3 (Homo sapiens, UniProt P22607)
protocol_notes: FGFR Enzymatic Assay (FRET peptide phosphorylation), FGFR3
pIC50: −log10 of the molar value.
The entries below are paired with their reported pIC50.
reported_metric: pIC50

>  <molecule>
COc1cc2[nH]nc(-c3ccc(C4CCN(C(=O)CO)CC4)nc3)c2nc1-c1cccc2c1CC(F)C2 (stereo not shown)

>  <assay_system>
wild-type un-phosphorylated FGFR3 (Homo sapiens, UniProt P22607)

>  <reported_metric>
pIC50

>  <value_observed>
> 8.22

$$$$
>  <molecule>
CCOc1cc2[nH]nc(-c3cnn(C)c3)c2nc1-c1cccc2c1CCC2

>  <assay_system>
wild-type un-phosphorylated FGFR3 (Homo sapiens, UniProt P22607)

>  <reported_metric>
pIC50

>  <value_observed>
> 8.22

$$$$
>  <molecule>
[2H]C1(n2cc(-c3n[nH]c4cc(OC)c(-c5cccc6c5CCC6C#N)nc34)cn2)CCN(C(=O)C2CCOCC2)CC1 (stereo not shown)

>  <assay_system>
wild-type un-phosphorylated FGFR3 (Homo sapiens, UniProt P22607)

>  <reported_metric>
pIC50

>  <value_observed>
> 8.22

$$$$
>  <molecule>
COC(=O)N1CC(n2cc(-c3n[nH]c4cc(OC)c(-c5cccc(C)c5C)nc34)cn2)C1

>  <assay_system>
wild-type un-phosphorylated FGFR3 (Homo sapiens, UniProt P22607)

>  <reported_metric>
pIC50

>  <value_observed>
> 8.22

$$$$
>  <molecule>
COc1cc2[nH]nc(-c3ccc(C4CCN(C(=O)[C@H](C)O)CC4)nc3)c2nc1-c1cccc2c1CC(F)C2 (single isomer, unassigned)

>  <assay_system>
wild-type un-phosphorylated FGFR3 (Homo sapiens, UniProt P22607)

>  <reported_metric>
pIC50

>  <value_observed>
> 8.22

$$$$
>  <molecule>
COc1cc2[nH]nc(-c3cnn(CCC#N)c3)c2nc1-c1cccc2c1CCC2

>  <assay_system>
wild-type un-phosphorylated FGFR3 (Homo sapiens, UniProt P22607)

>  <reported_metric>
pIC50

>  <value_observed>
> 8.22

$$$$
>  <molecule>
COc1cc2[nH]nc(-c3cnn(C4CN(C(=O)[C@H]5CCOC5)C4)c3)c2nc1-c1cccc2c1CCC2

>  <assay_system>
wild-type un-phosphorylated FGFR3 (Homo sapiens, UniProt P22607)

>  <reported_metric>
pIC50

>  <value_observed>
> 8.22

$$$$

----------
assay_system: UniProt:P11362
Sequence (P11362 22-822): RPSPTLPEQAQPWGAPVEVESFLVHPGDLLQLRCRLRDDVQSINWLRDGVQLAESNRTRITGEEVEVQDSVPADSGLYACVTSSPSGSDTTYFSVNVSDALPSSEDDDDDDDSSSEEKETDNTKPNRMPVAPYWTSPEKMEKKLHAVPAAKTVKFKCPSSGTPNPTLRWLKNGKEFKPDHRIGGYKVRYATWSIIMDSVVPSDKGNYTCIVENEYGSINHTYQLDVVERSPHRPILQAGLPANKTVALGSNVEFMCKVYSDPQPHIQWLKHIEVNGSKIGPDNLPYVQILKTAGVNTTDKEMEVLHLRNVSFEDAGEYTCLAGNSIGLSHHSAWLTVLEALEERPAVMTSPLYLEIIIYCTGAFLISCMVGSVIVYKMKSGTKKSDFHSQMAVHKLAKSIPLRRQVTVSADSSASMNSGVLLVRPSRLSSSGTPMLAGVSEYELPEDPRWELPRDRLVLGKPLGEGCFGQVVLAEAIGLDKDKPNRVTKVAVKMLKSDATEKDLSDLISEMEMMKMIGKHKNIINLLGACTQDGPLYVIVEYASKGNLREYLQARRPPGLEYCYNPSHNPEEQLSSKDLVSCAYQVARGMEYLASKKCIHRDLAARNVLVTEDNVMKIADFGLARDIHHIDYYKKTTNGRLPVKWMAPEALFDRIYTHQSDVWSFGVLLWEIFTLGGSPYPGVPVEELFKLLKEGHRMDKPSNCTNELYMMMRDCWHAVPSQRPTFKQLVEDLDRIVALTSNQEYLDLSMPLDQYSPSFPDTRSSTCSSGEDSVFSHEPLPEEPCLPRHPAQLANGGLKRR
protocol_notes: FGFR Enzymatic Assay (FRET peptide phosphorylation), FGFR1
experimental_parameters: FGFR1, wild-type un-phosphorylated FGFR1; pre-incubated for 4 hours
pIC50: −log10 of the molar value.
The entries below are paired with their reported pIC50.

>  <molecule>
COc1cc2[nH]nc(-c3cnn(C)c3)c2nc1-c1cccc2c1C[C@H](F)[C@@H]2O

>  <pIC50>
< 7.00

$$$$
>  <molecule>
COc1cc2[nH]nc(-c3ccc(C4CCC(N(C)S(C)(=O)=O)C4)nc3)c2nc1-c1cccc2c1CCC2 (stereo not shown)

>  <pIC50>
7.00 to 7.40

$$$$
>  <molecule>
COc1cc2[nH]nc(-c3ccc(C4CCN(C(=O)CO)CC4)nc3)c2nc1-c1cccc(C)c1C

>  <pIC50>
< 7.00

$$$$
>  <molecule>
COc1cc2[nH]nc(-c3ccc(N4CCC(O)CC4)nc3)c2nc1-c1cccc(C)c1C

>  <pIC50>
< 7.00

$$$$
>  <molecule>
COc1cc2[nH]nc(-c3ccc(N4CCN5C[C@@H](O)C[C@@H]5C4)nc3)c2nc1-c1cccc(C)c1C

>  <pIC50>
7.00 to 7.40

$$$$
>  <molecule>
COCCOC(=O)N1CC(n2cc(-c3n[nH]c4cc(OC)c(-c5cccc6c5CCC6)nc34)cn2)C1

>  <pIC50>
7.00 to 7.40

$$$$
>  <molecule>
COc1cc2[nH]nc(-c3ccc(CN4C[C@H]5C[C@@H]4CO5)nc3)c2nc1-c1cccc2c1CCC2

>  <pIC50>
7.00 to 7.40

$$$$
>  <molecule>
COc1cc2[nH]nc(-c3ccc(N4CCOCC4)nc3)c2nc1-c1cccc(C)c1C

>  <pIC50>
< 7.00

$$$$
>  <molecule>
[2H]C([2H])([2H])Oc1cc2[nH]nc(-c3ccc(N4CCN(C)CC4)nc3)c2nc1-c1cccc(C)c1C

>  <pIC50>
7.00 to 7.40

$$$$
>  <molecule>
CNc1cc2[nH]nc(-c3cnn(C)c3)c2nc1-c1cccc2c1CCC2

>  <pIC50>
< 7.00

$$$$
>  <molecule>
COc1cc2[nH]nc(-c3cnn(C)c3)c2nc1-c1cccc2c1CCC2O (single isomer, unassigned) [Example 8]

>  <pIC50>
< 7.00

$$$$
>  <molecule>
COc1cc2[nH]nc(-c3ccc(CN4CCn5ncnc5C4)nc3)c2nc1-c1cccc2c1CCC2

>  <pIC50>
7.00 to 7.40

$$$$
>  <molecule>
COc1cc2[nH]nc(-c3cnn(C4CCNC4)c3)c2nc1-c1cccc2c1CCC2 (stereo not shown)

>  <pIC50>
7.00 to 7.40

$$$$
>  <molecule>
COc1cc2[nH]nc(-c3cnn(C4CN(C)C4)c3)c2nc1-c1cccc2c1CCC2

>  <pIC50>
7.00 to 7.40

$$$$
>  <molecule>
COc1cc2[nH]nc(-c3ccc(C4CCC(C(=O)O)CC4)nc3)c2nc1-c1cccc(C)c1C (stereo not shown)

>  <pIC50>
7.00 to 7.40

$$$$
>  <molecule>
CCN1CCC(n2cc(-c3n[nH]c4cc(OC)c(-c5cccc6c5CCC6)nc34)cn2)C1 (stereo not shown)

>  <pIC50>
7.00 to 7.40

$$$$
>  <molecule>
COC(=O)N1CCC(n2cc(-c3n[nH]c4cc(OC)c(-c5cccc(C)c5C)nc34)cn2)CC1

>  <pIC50>
< 7.00

$$$$
>  <molecule>
COc1cc2[nH]nc(-c3ccc(N4CCN(C)CC4C)nc3)c2nc1-c1cccc2c1CCC2 (stereo not shown)

>  <pIC50>
7.00 to 7.40

$$$$
>  <molecule>
COc1cc2[nH]nc(-c3ccc(N4CCN5C[C@H](O)C[C@H]5C4)nc3)c2nc1-c1cccc(C)c1C

>  <pIC50>
7.00 to 7.40

$$$$
>  <molecule>
COCCOc1ccc(-c2n[nH]c3cc(OC)c(-c4cccc5c4CC(O)C5)nc23)cn1 (stereo not shown)

>  <pIC50>
7.00 to 7.40

$$$$
>  <molecule>
COc1cc2[nH]nc(-c3ccc(N4CCN(C)CC4)nc3)c2nc1-c1cccc(C)c1C

>  <pIC50>
7.00 to 7.40

$$$$
>  <molecule>
COc1cc2[nH]nc(-c3cnn(C)c3)c2nc1-c1cccc2c1CC(O)C2 (single isomer, unassigned)

>  <pIC50>
7.00 to 7.40

$$$$
>  <molecule>
COc1cc2[nH]nc(-c3cnn(C)c3)c2nc1-c1cccc2c1CC(F)C2 (stereo not shown)

>  <pIC50>
7.00 to 7.40

$$$$
>  <molecule>
COc1cc2[nH]nc(-c3cnn(C)c3)c2nc1-c1cccc(CC#N)c1C

>  <pIC50>
< 7.00

$$$$
>  <molecule>
[2H]C([2H])([2H])c1cccc(-c2nc3c(-c4ccc(N5CCN(C)CC5)nc4)n[nH]c3cc2OC)c1C

>  <pIC50>
7.00 to 7.40

$$$$
>  <molecule>
COc1cc2[nH]nc(-c3ccc(C4CN(C(=O)C5CCCO5)C4)nc3)c2nc1-c1cccc2c1CCC2 (stereo not shown)

>  <pIC50>
7.00 to 7.40

$$$$
>  <molecule>
CCOc1cc2[nH]nc(-c3cnn(C)c3)c2nc1-c1cccc2c1CCC2

>  <pIC50>
< 7.00

$$$$
>  <molecule>
COc1cc2[nH]nc(-c3cnn(C)c3)c2nc1-c1cccc2c1OCC2

>  <pIC50>
< 7.00

$$$$
>  <molecule>
COc1cc2[nH]nc(-c3cnn(Cc4ncnn4C)c3)c2nc1-c1cccc(C)c1C

>  <pIC50>
7.00 to 7.40

$$$$
>  <molecule>
COc1cc2[nH]nc(-c3cnn([C@H]4CC[C@H](O)CC4)c3)c2nc1-c1cccc2c1CCC2

>  <pIC50>
7.00 to 7.40

$$$$
>  <molecule>
Cn1cc(-c2n[nH]c3cc(C(F)F)c(-c4cccc5c4CCC5)nc23)cn1

>  <pIC50>
7.00 to 7.40

$$$$
